Can you tell me Remaining Percentages (%) 15 min for the items I'm about to list?
procedure-text: Plasma stability in mouse plasma
Format: in vitro ADME
assay-context: 1 μM, 15 min
Give just the numeric value; % need not be written.

// sample CCSC(=O)NC(C)Cc1ccc2c(c1)OCO2 (stereo not drawn) [Prodrug 8] , its Remaining Percentages (%) 15 min was 110.30

// sample CSC(=S)N(C)C(C)Cc1ccc2c(c1)OCO2 (stereo not drawn) [Prodrug 9] , its Remaining Percentages (%) 15 min was 101.32

// sample COC(=S)NC(C)Cc1ccc2c(c1)OCO2 (stereo not drawn) [Prodrug 2] , its Remaining Percentages (%) 15 min was 101.54

// sample CCOC(=S)N(C)C(C)Cc1ccc2c(c1)OCO2 (stereo not drawn) [Prodrug 3] , its Remaining Percentages (%) 15 min was 106.31

// sample CCSC(=S)NC(C)Cc1ccc2c(c1)OCO2 (stereo not drawn) [Prodrug 12] , its Remaining Percentages (%) 15 min was 101.19

// sample CSC(=O)N(C)C(C)Cc1ccc2c(c1)OCO2 (stereo not drawn) [Prodrug 5] , its Remaining Percentages (%) 15 min was 100.78

// sample CSC(=O)NC(C)Cc1ccc2c(c1)OCO2 (stereo not drawn) [Prodrug 6] , its Remaining Percentages (%) 15 min was 99.73

// sample CCSC(=O)N(C)C(C)Cc1ccc2c(c1)OCO2 (stereo not drawn) [Prodrug 7] , its Remaining Percentages (%) 15 min was 110.62

// sample CCOC(=S)NC(C)Cc1ccc2c(c1)OCO2 (stereo not drawn) [Prodrug 4] , its Remaining Percentages (%) 15 min was 100.00

// sample CSC(=S)NC(C)Cc1ccc2c(c1)OCO2 (stereo not drawn) [Prodrug 10] , its Remaining Percentages (%) 15 min was 100.89

// sample COC(=S)N(C)C(C)Cc1ccc2c(c1)OCO2 (stereo not drawn) [Prodrug 1] , its Remaining Percentages (%) 15 min was 108.17

// sample CCSC(=S)N(C)C(C)Cc1ccc2c(c1)OCO2 (stereo not drawn) [Prodrug 11] , its Remaining Percentages (%) 15 min was 97.92

Ref: patent US20250152553A1
